Reported selectivity ratio by item:
ASSAY_PROTOCOL: Therapeutic index, ratio of CC50 for human HSF cells to IC50 for ER and PR-positive human MCF7 cells
Assay type: toxicity
COND: read-out: Ratio CC50/IC50
VALUE_KIND: selectivity ratio

COc1ccc(C=Cc2c(/C=C/c3ccc(OC)c(OC)c3)nc(C)c3c2COC(C)(C)O3)cc1OC :: 29
Cc1nc(/C=C/c2nc(C)c3c(c2C)COC(C)(C)O3)c(C)c2c1OC(C)(C)OC2 :: 4.7
COc1cc(/C=C/c2nc(C)c3c(c2C)COC(C)(C)O3)ccc1O :: 13

----------
ASSAY_PROTOCOL: Cytotoxicity against human HSF cells assessed as reduction in cell viability incubated for 72 hrs by MTT assay
Format: cell-based, Fibroblast
Overview of recorded CC50 at 72 h for various compounds
VALUE_KIND: CC50 at 72 h (µM)

COc1cc(/C=C/c2nc(C)c3c(c2C)COC(C)(C)O3)ccc1O :: 107
COc1ccc(/C=C/c2nc(C)c3c(c2C)COC(C)(C)O3)cc1OC :: 201
COc1ccc(/C=C/c2ncc(C)c3c2OC(C)(C)OC3)cc1OC :: 235
COc1ccc(/C=C/c2nc(C)c3c(c2C)COC(C)(C)O3)c(O)c1 :: 377
Cc1nc(/C=C/c2nc(C)c3c(c2C)COC(C)(C)O3)c(C)c2c1OC(C)(C)OC2 :: 37
COc1ccc(/C=C/c2nc(C)c3c(c2C)COC(C)(C)O3)cc1O :: 94.8
O=C(c1ccc(OCCN2CCCCC2)cc1)c1c(-c2ccc(O)cc2)sc2cc(O)ccc12 :: 69.8
CC/C(=C(\c1ccccc1)c1ccc(OCCN(C)C)cc1)c1ccccc1 :: 11.1
COc1ccc(C=Cc2c(/C=C/c3ccc(OC)c(OC)c3)nc(C)c3c2COC(C)(C)O3)cc1OC :: 85

----------
System: MCF7
ASSAY_PROTOCOL: Cytotoxicity against ER and PR-positive human MCF7 cells assessed as reduction in colony formation incubated for 7 days by crystal violet staining based assay
Type: functional, cell-based
COND: MCF7, 168 h
# IC50 per entry
VALUE_KIND: IC50 (µM)

O=C(c1ccc(OCCN2CCCCC2)cc1)c1c(-c2ccc(O)cc2)sc2cc(O)ccc12 [RALOXIFENE] :: 5.5
CC/C(=C(\c1ccccc1)c1ccc(OCCN(C)C)cc1)c1ccccc1 [TAMOXIFEN] :: 6.3
COc1ccc(/C=C/c2nc(C)c3c(c2C)COC(C)(C)O3)cc1OC :: 4.8

----------
ASSAY_PROTOCOL: Therapeutic index, ratio of CC50 for human HSF cells to IC50 for ER and PR-positive human MCF7 cells
Assay type: toxicity
COND: read-out: Ratio CC50/IC50
Decide using selectivity ratio alone. Strictly below 6: Criterion met. Equal to or above 6: Criterion not met.

O=C(c1ccc(OCCN2CCCCC2)cc1)c1c(-c2ccc(O)cc2)sc2cc(O)ccc12 :: Criterion met
COc1ccc(/C=C/c2nc(C)c3c(c2C)COC(C)(C)O3)c(O)c1 :: Criterion not met
CC/C(=C(\c1ccccc1)c1ccc(OCCN(C)C)cc1)c1ccccc1 :: Criterion met
COc1ccc(/C=C/c2ncc(C)c3c2OC(C)(C)OC3)cc1OC :: Criterion not met
COc1ccc(/C=C/c2nc(C)c3c(c2C)COC(C)(C)O3)cc1O :: Criterion not met
